Hello, the source for this data is ChEMBL document CHEMBL1201862, in case you need it.

# Tested on: NCI-H460
# measurement description: NCI tumour cell line growth inhibition, 48 h
Calls of active or inactive are those of the source. Cut-off read from the data, not from the text of the source: active = GI50 up to about 1.1 µM and inactive = higher. Residues, ends and D or L forms follow the SMILES beside them. *: point of attachment. Boc = CC(C)(C)OC(=O)*; OBn = c1ccc(CO*)cc1
Choose the fitting class; nothing outside True = active, False = inactive is accepted.

Test call for this molecule, please: CC1=NN(C(=O)Cc2ccccc2)C(=O)/C1=C\c1ccccc1O
False

Hello, I am checking results. What call was entered for O=C(Nc1cccc(O)c1)C(=O)C(C(=O)c1ccccc1F)C1OC(=O)c2ccccc21 (stereo not given) ?
False

Kindly provide the recorded test outcome for the following molecule: CC(C)CNP(=O)(NCC(C)C)Oc1ccc(CC(NC(=O)OCc2ccccc2)C(=O)OCc2ccccc2)cc1 (stereo not given)
False

State the result this test recorded for CC(=O)OC1(C)CC(C)C(=O)C(C(O)CC2CC(=O)NC(=O)C2)C1 (stereo not given) .
True

Any idea what this test logged for COc1cc(O)c2c(c1)C(=O)c1cc(C)cc(O)c1C2=O [PHYSCION] ?
False

Outcome? N#C/C(=C\c1ccccc1Br)C(=O)c1ccccc1
False

What was the test verdict on C=C(C)C(=O)O[C@H]1CC2=C[C@@H](C[C@@]3(C)O[C@@H]3[C@H]3OC(=O)C(=C)[C@@H]31)OC2=O [ELEPHANTOPIN] ?
False

Which result was noted for this molecule in the test: Nc1ncnc2c1sc(=S)n2-c1ccccc1
False

Lab log entry: CC(C)C(NC(=O)CNC(=O)C1CCCN1C(=O)C(NC(=O)OC(C)(C)C)C(C)C)C(=O)NCC(=O)OCc1ccccc1 (stereo not given) (Boc-VPGVG-OBn; configuration not given here) — outcome as called in the assay?
False

# outcome recorded in this test, key = COc1cccc2c1cc([N+](=O)[O-])c1c(C(=O)O)cc3c(c12)OCO3 [ARISTOLOCHIC ACID]
False

* * *

# System: UACC-257
# measurement description: NCI tumour cell line growth inhibition, 48 h
Active and inactive are the calls of the source. No stated cut-off is given here; in the data, active = GI50 up to about 1.1 µM and inactive = higher. Residues, ends and D or L forms follow the SMILES beside them. *: point of attachment. Boc = CC(C)(C)OC(=O)*; OBn = c1ccc(CO*)cc1
Can you tell me GI50 for the items I'm about to list?

According to the records, this molecule CC(C)C(NC(=O)CNC(=O)C1CCCN1C(=O)C(NC(=O)OC(C)(C)C)C(C)C)C(=O)NCC(=O)OCc1ccccc1 (stereo not given) (Boc-VPGVG-OBn; configuration not given here) displays GI50 of > 100 µM (inactive)

Lookup result for COC(=O)C1=C(O)C(C(=O)OC)[C@@]2(O)[C@@H](C(=O)OC)C(c3ccc(OC(=O)/C=C/c4ccccc4)cc3)C[C@@H]1[C@@H]2C(=O)OC (stereo not given in full) ; measured GI50: 7.23 µM (inactive)

get_value(item= COc1cc2c(c(OC)c1OC)-c1ccc(SC)c(=O)cc1C(CC(=O)Oc1ccc([N+](=O)[O-])cc1)C2 (stereo not given) , readout=GI50) returns 0.486 µM (active)

Measured GI50, COC1(OC)CC2CCCCC2=C(C)N1S(=O)(=O)c1ccccc1 (stereo not given) : > 100 µM (inactive)

// recorded GI50 for NS(=O)(=O)c1ccc(NS(=O)(=O)c2ccc(NC(=O)N(c3ccccc3)c3ccccc3)cc2)cc1 : 77.4 µM (inactive)

Lab note: CC(=O)NC1C(OCC(=O)NCCNc2ccc([N+](=O)[O-])c3[nH]c4ccccc4c(=O)c23)C(O)C(CO)OC1(C)OCc1ccccc1 (stereo not given) gave GI50 of > 100 µM (inactive)

Lab book: GI50 of Oc1ccc2c3c1OC1C(=NN=C4CCC5(O)C6Cc7ccc(O)c8c7C5(CCN6CC5CC5)C4O8)CCC4(O)C(C2)N(CC2CC2)CCC314 (stereo not given) noted as 20.4 µM (inactive)

Value of measured GI50 for the entry N#CC(C#N)=C(N)/C(C#N)=C/c1ccc2ccccc2n1 : 48.8 µM (inactive)

GI50 reported for this molecule CCSc1nc(N/N=C/c2cccs2)c2cnn(CO)c2n1 : 11.6 µM (inactive)

Lab book: GI50 of O=C(O)C(C1NCCS1)N1C(=O)c2ccccc2C1=O (stereo not given) noted as > 100 µM (inactive)

Short answer for CCC(C)Cn1c(C)nc2c1C(=O)c1ccccc1C2=O (stereo not given) : GI50 was 23.5 µM (inactive)

Short answer for CCCCCCCCCCCCCCCCCc1cc(Cl)nc(Cl)n1 : GI50 was > 100 µM (inactive)

GI50 reported for this molecule O=[N+]([O-])c1ccc2c(c1)c(OCc1ccccc1)nn2Cc1ccccc1 : > 100 µM (inactive)

Sample c1ccc(NN(Cc2cnccn2)c2ccccc2)cc1 ; GI50 observed: 51.6 µM (inactive)

For CC1(C)C(=O)C(C)(C)C1=S the molecule record lists GI50 as > 100 µM (inactive)

Field GI50 (entry C=C(CN(C)C)C(=O)c1ccccc1[N+](=O)[O-] ) reads 15.8 µM (inactive)

So, C1=Cc2ccccc2C1.C=C(C)c1ccccc1.[N-]=[N+]=Nc1ccccc1 ? Its GI50 was 41 µM (inactive)

// CNC1=C(C)C(=O)C2=C(C1=O)C(COC(N)=O)C1(OC)C3NC3CN21 (stereo not given) : GI50 value = 0.951 µM (active)

molecule Cc1ccc(S(=O)(=O)c2ccsc2NC(=O)c2ccccc2)cc1 , GI50 observed: > 100 µM (inactive)

GI50 in this record for COc1ccc(/C=C(\C(=C/c2ccc(OC)cc2)[N+](=O)[O-])[N+](=O)[O-])cc1 : 5.22 µM (inactive)

GI50 recorded for this molecule, CN1C(=O)c2ccccc2C(O)(c2ccccc2)C1(O)c1ccccc1 (stereo not given) , is > 100 µM (inactive)

// recorded GI50 for Cc1n[nH]/c(=N\S(=O)(=O)c2ccc(/N=N/c3c(O)c(C(=O)O)cc4ccccc34)cc2)s1 : > 100 µM (inactive)

Lab note: CC1(C)OC2C(=O)OC(COCc3ccccc3)C2O1 (stereo not given) gave GI50 of > 100 µM (inactive)

Form: molecule = CCN1c2cc(Br)cc3[nH]c(=O)n(c23)CCC1C (stereo not given) ; GI50 = 17.4 µM (inactive)

GET /value?item= O=C(O)c1nc(-c2ccccc2)[nH]c1C(=O)O &field=GI50 returns 16.6 µM (inactive)

CCCCCCCCCCCCCCCCP(=O)(O)OP(=O)(O)OCC1OC(n2cnc3c(N)ncnc32)C(O)C1O (stereo not given) yielded GI50 of 23.7 µM (inactive)

Notebook: CCCCSC1=N/C(=C\c2ccco2)C(=O)N1 , GI50 read as 34.8 µM (inactive)

According to the records, this molecule CN(C)c1ccc(C(=NN)c2ccc(N(C)C)cc2)cc1 displays GI50 of 0.203 µM (active)

Looking up CC(C)(C)OC(=O)n1c(Cl)c(C=O)c2ccccc21 , I found its GI50 recorded as 28.8 µM (inactive)

Entry under test: O[C@@]1(c2cccs2)c2cccc(Cl)c2[C@](O)(c2cccs2)c2cccc(Cl)c21 . Its GI50 was 15.2 µM (inactive)

Entry Clc1ccc(Cc2nc3ccccc3nc2-c2cccc(Cl)c2)cc1 — recorded GI50 = 13.8 µM (inactive)

Field GI50 (entry CC(C)Sc1nc(C#N)cc2c1CCCC2 ) reads 39.9 µM (inactive)

In plain terms, CC1=CC(C)C(O)C(C)/C=C\C(O)C/C=C(/C)C(=O)CC(O)C(C)\C=C/C=C\C=C/C(=O)NC2=C(O)C(=O)c3c(cc(C)c(O)c3C1=O)C2=O (stereo not given) has a documented GI50 of > 100 µM (inactive)

GET /value?item= CC1=NN(C(=O)Cc2ccccc2)C(=O)/C1=C\c1ccccc1O &field=GI50 returns > 100 µM (inactive)

Noted for CC(C)(OCc1ccccc1)c1ccccc1P(c1ccccc1)c1ccccc1 : its GI50 reads 22.3 µM (inactive)

* * *

Answer each item with its documented GI50.
# Test system: A549
# measurement description: NCI tumour cell line growth inhibition, 48 h
Activity calls are given as the source filed them. Cut-off read from the data, not from the text of the source: active = GI50 up to about 1.1 µM and inactive = higher.

For reference, reported GI50 for COc1ccc(C(=O)Nc2ccc3oc(-c4ccccc4)nc3c2)cc1 stands at > 100 µM (inactive)

# GI50 (molecule: Clc1ccc2nc3[nH]nc(Cl)c3nc2c1 ) is 36.8 µM (inactive)

Query Cc1nc(N(C(C)C)C(C)C)c(C(C)C)o1 yields GI50 of > 100 µM (inactive)

Given item CCOC(=O)[C@H](C)OC(=O)[C@@](C)(NC(=O)c1ccccc1C(=O)OC)[C@@H]1NC=C(C(=O)OC)CS1 , the value recorded as its GI50 is > 100 µM (inactive)

In plain terms, O=c1[nH]c2nc3ccccc3c(=O)n2/c1=C/c1ccc(Cl)cc1 has a documented GI50 of > 100 µM (inactive)
